- targetOfAssay: T1, human MCAM expressed on CHO cells (full length human MCAM gene) (human, UniProt P43121 24-646)
- T1 construct: also called hMCAM expressing CHO cells; CD146
- T1 chain: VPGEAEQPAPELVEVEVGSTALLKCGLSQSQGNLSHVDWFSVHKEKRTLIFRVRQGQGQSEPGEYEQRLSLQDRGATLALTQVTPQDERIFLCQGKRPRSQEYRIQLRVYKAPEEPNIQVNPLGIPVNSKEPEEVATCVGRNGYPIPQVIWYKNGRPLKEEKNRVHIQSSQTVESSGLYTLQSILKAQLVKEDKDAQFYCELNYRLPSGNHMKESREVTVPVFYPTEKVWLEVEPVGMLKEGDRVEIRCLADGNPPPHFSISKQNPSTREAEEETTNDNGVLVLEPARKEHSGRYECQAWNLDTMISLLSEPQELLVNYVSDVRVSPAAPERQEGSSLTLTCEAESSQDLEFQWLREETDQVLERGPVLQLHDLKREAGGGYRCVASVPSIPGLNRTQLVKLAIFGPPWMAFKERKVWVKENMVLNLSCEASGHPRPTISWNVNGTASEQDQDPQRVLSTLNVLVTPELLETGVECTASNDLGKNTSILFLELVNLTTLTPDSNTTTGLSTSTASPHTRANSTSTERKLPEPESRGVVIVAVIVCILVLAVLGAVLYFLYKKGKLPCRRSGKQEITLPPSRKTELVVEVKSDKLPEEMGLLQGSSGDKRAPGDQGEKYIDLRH
- assayProtocol: flow cytometry: blocking of recombinant human laminin 411 (20 ug/ml) binding to CHO cells expressing human MCAM
quantityMeasured: IC50 (µg/mL)
The answer is to be given in µg/mL; state only the numeric part.

Solved entries:
{"binder": "mouse anti-human MCAM monoclonal antibody clone 1174.1.3 (antibody, V domains shown, Mouse hybridoma antibody) VH: QIQLVQSGPELKKPGETVKISCKASGYTFTNYGMNWVKQAPGKGLKWMGWINTYTGEPTYADDFKGRFALSLETSASTAYLQINNLKNEDMATYFCARYRYNKYERAMDYWGQGTSVTVSS VL: DIVLTQSPASLAVSLGQRATISCRASKSVSTSGYSYMYWYQQKPGQPPKLLIYLASNLESGVPARFSGSGSGTDFTLNIHPVEEEDAATYYCQHSRELPFTFGSGTKLEIK", "recordedValue": 0.469}
{"binder": "mouse anti-human MCAM monoclonal antibody clone 1414.1.2 (antibody, V domains shown, Mouse hybridoma antibody) VH: EIQLQQTGPELVKPGASVKISCKASGYSFTDYIMLWVKQSHGKSLEWIGNINPYSGSSGYNLKFKGKATLTVDKSSSTAYMQLNSLTSEDSAVYYCARGKDFAMDYWGQGTSVTVSS VL: DIVMSQSPSSLAVSAGEKVTMSCKSSQSLLNSSTRKNFLAWYQQKPGQSPKLLIYWASTRESGVPDRFTGSGSGTDFTLTISSVQAEDLAVYYCKQSYNRYTFGGGTKLEIK", "recordedValue": 0.431}

With those in mind, consider the next binder.
Enquiry: Return reported IC50; argument: mouse anti-human MCAM monoclonal antibody clone 1415.1.1 (antibody, V domains shown, Mouse hybridoma antibody) VH: QVQLQQPGAELVQPGAPVKLSCKASGYIFTSYWMNWVKQRPGRGLEWIGRIDPSDSKIHYNQKFKDKATLTVDRSSSTAYIQLGSLTSEDSAVYYCAKEGGLRRGDYAMDYWGQGTSVTVSS VL: DIVMTQSPATLSVTPGDRVSLSCRASQSISDYLHWYQQKSHESPRLLIKYASQSISGIPSRFSGSGSGSDFTLSINSVEPEDVGVYYCQNGHNFPRTFGGGTKLEIK
Return: 0.307
